- System: panel of 24 kinases
- ASSAY COMMENT: Kinase selectivity testing (percentage inhibition of 24 kinases at 1 μM)
- Type: biochemical
- DETAILS: proquinase, IGF1_R, 1 uM
// label 0 strictly below 10% in % inhibiton at 1 uM IGF1_R; label 1 otherwise

1. FC(F)(F)c1cccc(-n2nnc3cc(Cl)c(NCC4CCNCC4)nc32)c1
label 1
2. FC(F)(F)Oc1cccc(-n2nnc3ccc(NC4CC5(CCNCC5)C4)nc32)c1
label 1
3. FC(F)(F)Oc1cccc(-n2nnc3ccc(N4CCCC5(CCCN5)CC4)nc32)c1 (centres unmarked)
label 1
4. FC(F)(F)Oc1cccc(-n2nnc3cc(Cl)c(NCC4CCNCC4)nc32)c1
label 1
5. COc1cc(NCC2CCNCC2)nc2c1nnn2-c1cccc(N(C)C)c1
label 0
6. OC1CCC(Nc2ccc3nnn(-c4cccc(OC(F)(F)F)c4)c3n2)CC1 (stereo in doubt)
label 0
7. COc1cc(NCC2CCNCC2)nc2c1nnn2-c1cccc(OC(F)(F)F)c1
label 0
8. FC(F)(F)Oc1cccc(-n2nnc3ccc(NCC4CC5(CCNCC5)C4)nc32)c1
label 1
